- experiment: activity coefficient (dimensionless); of the first substance listed, at infinite dilution; xn = mol fraction of the nth substance listed
- condition.info: 353.1 K; 101 kPa; Liquid; Chromatography; x1 = 0
Record form. Attribute: activity coefficient. Fill in for each entry.

In: Recall and state the measured activity coefficient for Cc1cccc(C)c1 [1,3-dimethylbenzene] + CC[n+]1ccccc1.O=S(=O)([N-]S(=O)(=O)C(F)(F)F)C(F)(F)F .
Out: 3.13

In: Recall and state the measured activity coefficient for C#CCCCCC [1-heptyne] + CCCC[n+]1ccccc1.O=S(=O)([N-]S(=O)(=O)C(F)(F)F)C(F)(F)F .
Out: 4.58

In: Recall and state the measured activity coefficient for C#CCCC [1-pentyne] + CC[n+]1ccccc1.O=S(=O)([N-]S(=O)(=O)C(F)(F)F)C(F)(F)F .
Out: 2.03

In: Recall and state the measured activity coefficient for c1ccccc1 [benzene] + CC[n+]1ccccc1.O=S(=O)([N-]S(=O)(=O)C(F)(F)F)C(F)(F)F .
Out: 1.36

###

- experiment: activity coefficient (dimensionless); of the first substance listed, at infinite dilution; xn = mol fraction of the nth substance listed
- condition.info: 332.8 K; 101 kPa; Liquid; Chromatography; x1 = 0
Checkbox rule: activity coefficient lower than 20 = t; activity coefficient not lower than 20 = f.

In: Hello, I'm reviewing records and need to know if activity coefficient of C=CCCCCCCCC [1-decene] + CC[n+]1ccccc1.O=S(=O)([N-]S(=O)(=O)C(F)(F)F)C(F)(F)F is below 20. Could you check?
Out: f

In: Hello, I'm reviewing records and need to know if activity coefficient of C=CCCCC [hex-1-ene] + CC[n+]1ccccc1.O=S(=O)([N-]S(=O)(=O)C(F)(F)F)C(F)(F)F is below 20. Could you check?
Out: t

In: Hello, I'm reviewing records and need to know if activity coefficient of C=CCCCCCC [oct-1-ene] + CC[n+]1ccccc1.O=S(=O)([N-]S(=O)(=O)C(F)(F)F)C(F)(F)F is below 20. Could you check?
Out: f

In: Hello, I'm reviewing records and need to know if activity coefficient of CCCCCC [hexane] + CCCC[n+]1ccccc1.O=S(=O)([N-]S(=O)(=O)C(F)(F)F)C(F)(F)F is below 20. Could you check?
Out: t

In: Hello, I'm reviewing records and need to know if activity coefficient of C=CCCCCCCCC [1-decene] + CCCC[n+]1ccccc1.O=S(=O)([N-]S(=O)(=O)C(F)(F)F)C(F)(F)F is below 20. Could you check?
Out: f

In: Hello, I'm reviewing records and need to know if activity coefficient of C=CCCCC [hex-1-ene] + CCCC[n+]1ccccc1.O=S(=O)([N-]S(=O)(=O)C(F)(F)F)C(F)(F)F is below 20. Could you check?
Out: t

In: Hello, I'm reviewing records and need to know if activity coefficient of C=CCCCCCC [oct-1-ene] + CCCC[n+]1ccccc1.O=S(=O)([N-]S(=O)(=O)C(F)(F)F)C(F)(F)F is below 20. Could you check?
Out: t

###

- experiment: activity coefficient (dimensionless); of the first substance listed, at infinite dilution; xn = mol fraction of the nth substance listed
- condition.info: 312.7 K; 101 kPa; Liquid; Chromatography; x1 = 0
reported.property: activity coefficient
Answer using only a numeral; do not append any unit.

In: Recall and state the measured activity coefficient for Cc1ccc(C)cc1 [1,4-dimethylbenzene] + CCCCC[n+]1ccccc1.O=S(=O)([N-]S(=O)(=O)C(F)(F)F)C(F)(F)F .
Out: 1.79

In: Recall and state the measured activity coefficient for CCCCC [pentane] + CCCCC[n+]1ccccc1.O=S(=O)([N-]S(=O)(=O)C(F)(F)F)C(F)(F)F .
Out: 4.17

In: Recall and state the measured activity coefficient for C1CCCCC1 [cyclohexane] + CCCCC[n+]1ccccc1.O=S(=O)([N-]S(=O)(=O)C(F)(F)F)C(F)(F)F .
Out: 6.67

In: Recall and state the measured activity coefficient for CCCCCCCCC [nonane] + CCCCC[n+]1ccccc1.O=S(=O)([N-]S(=O)(=O)C(F)(F)F)C(F)(F)F .
Out: 33.3

###

- experiment: activity coefficient (dimensionless); of the first substance listed, at infinite dilution; xn = mol fraction of the nth substance listed
- condition.info: 303.2 K; 101 kPa; Liquid; Chromatography; x1 = 0
reported.property: activity coefficient
Answer using only a numeral; do not append any unit.

In: Recall and state the measured activity coefficient for CCCCCCCCC [nonane] + CCCCC[n+]1ccccc1.O=S(=O)([N-]S(=O)(=O)C(F)(F)F)C(F)(F)F .
Out: 36

In: Recall and state the measured activity coefficient for CCCCCCCC [octane] + CCCCC[n+]1ccccc1.O=S(=O)([N-]S(=O)(=O)C(F)(F)F)C(F)(F)F .
Out: 25

In: Recall and state the measured activity coefficient for C1CCCCC1 [cyclohexane] + CCCCC[n+]1ccccc1.O=S(=O)([N-]S(=O)(=O)C(F)(F)F)C(F)(F)F .
Out: 7.35

In: Recall and state the measured activity coefficient for c1ccccc1 [benzene] + CCCCC[n+]1ccccc1.O=S(=O)([N-]S(=O)(=O)C(F)(F)F)C(F)(F)F .
Out: 0.98

In: Recall and state the measured activity coefficient for CCCCCCC [heptane] + CCCCC[n+]1ccccc1.O=S(=O)([N-]S(=O)(=O)C(F)(F)F)C(F)(F)F .
Out: 16.5

###

- experiment: activity coefficient (dimensionless); of the first substance listed, at infinite dilution; xn = mol fraction of the nth substance listed
- condition.info: 323.2 K; 101 kPa; Liquid; Chromatography; x1 = 0
reported.property: activity coefficient
Answer using only a numeral; do not append any unit.

In: Recall and state the measured activity coefficient for C=CCCCCCCCC [1-decene] + CC[n+]1ccccc1.O=S(=O)([N-]S(=O)(=O)C(F)(F)F)C(F)(F)F .
Out: 70

In: Recall and state the measured activity coefficient for CCCCCCCC [octane] + CCCC[n+]1ccccc1.O=S(=O)([N-]S(=O)(=O)C(F)(F)F)C(F)(F)F .
Out: 29

In: Recall and state the measured activity coefficient for Cc1ccccc1 [toluene] + CC[n+]1ccccc1.O=S(=O)([N-]S(=O)(=O)C(F)(F)F)C(F)(F)F .
Out: 2.1

In: Recall and state the measured activity coefficient for C#CCCCC [1-hexyne] + CCCC[n+]1ccccc1.O=S(=O)([N-]S(=O)(=O)C(F)(F)F)C(F)(F)F .
Out: 3.5

In: Recall and state the measured activity coefficient for Cc1cccc(C)c1 [1,3-dimethylbenzene] + CC[n+]1ccccc1.O=S(=O)([N-]S(=O)(=O)C(F)(F)F)C(F)(F)F .
Out: 3.1

In: Recall and state the measured activity coefficient for C1CCCCC1 [cyclohexane] + CCCC[n+]1ccccc1.O=S(=O)([N-]S(=O)(=O)C(F)(F)F)C(F)(F)F .
Out: 7.88

In: Recall and state the measured activity coefficient for CCc1ccccc1 [ethylbenzene] + CC[n+]1ccccc1.O=S(=O)([N-]S(=O)(=O)C(F)(F)F)C(F)(F)F .
Out: 3.37

###

- experiment: activity coefficient (dimensionless); of the first substance listed, at infinite dilution; xn = mol fraction of the nth substance listed
- condition.info: 343.3 K; 101 kPa; Liquid; Chromatography; x1 = 0
If the reported activity coefficient equals or exceeds 20, assign yes. If not, assign no.

In: Exam item: decide whether the reported activity coefficient for CC1CCCCC1 [methylcyclohexane] + CCCC[n+]1ccccc1.O=S(=O)([N-]S(=O)(=O)C(F)(F)F)C(F)(F)F is at least 20.
Out: no

In: Exam item: decide whether the reported activity coefficient for CCCCCCC [heptane] + CCCCC[n+]1ccccc1.O=S(=O)([N-]S(=O)(=O)C(F)(F)F)C(F)(F)F is at least 20.
Out: no

In: Exam item: decide whether the reported activity coefficient for C#CCCCCC [1-heptyne] + CCCCC[n+]1ccccc1.O=S(=O)([N-]S(=O)(=O)C(F)(F)F)C(F)(F)F is at least 20.
Out: no

In: Exam item: decide whether the reported activity coefficient for CCCCCCCCC [nonane] + CCCC[n+]1ccccc1.O=S(=O)([N-]S(=O)(=O)C(F)(F)F)C(F)(F)F is at least 20.
Out: yes

In: Exam item: decide whether the reported activity coefficient for Cc1ccc(C)cc1 [1,4-dimethylbenzene] + CCCCC[n+]1ccccc1.O=S(=O)([N-]S(=O)(=O)C(F)(F)F)C(F)(F)F is at least 20.
Out: no

In: Exam item: decide whether the reported activity coefficient for CCCCCCCC [octane] + CCCCC[n+]1ccccc1.O=S(=O)([N-]S(=O)(=O)C(F)(F)F)C(F)(F)F is at least 20.
Out: no

###

- experiment: activity coefficient (dimensionless); of the first substance listed, at infinite dilution; xn = mol fraction of the nth substance listed
- condition.info: 323.4 K; 101 kPa; Liquid; Chromatography; x1 = 0
Record form. Attribute: activity coefficient. Fill in for each entry.
Answer using only a numeral; do not append any unit.

In: Recall and state the measured activity coefficient for C#CCCCCCC [1-octyne] + CCCCC[n+]1ccccc1.O=S(=O)([N-]S(=O)(=O)C(F)(F)F)C(F)(F)F .
Out: 5.34

In: Recall and state the measured activity coefficient for CCCCC [pentane] + CCCCC[n+]1ccccc1.O=S(=O)([N-]S(=O)(=O)C(F)(F)F)C(F)(F)F .
Out: 3.42

In: Recall and state the measured activity coefficient for C#CCCC [1-pentyne] + CCCCC[n+]1ccccc1.O=S(=O)([N-]S(=O)(=O)C(F)(F)F)C(F)(F)F .
Out: 1.75

In: Recall and state the measured activity coefficient for CCO [ethanol] + CCCCC[n+]1ccccc1.O=S(=O)([N-]S(=O)(=O)C(F)(F)F)C(F)(F)F .
Out: 1.67

In: Recall and state the measured activity coefficient for C#CCCCCC [1-heptyne] + CCCCC[n+]1ccccc1.O=S(=O)([N-]S(=O)(=O)C(F)(F)F)C(F)(F)F .
Out: 3.87

In: Recall and state the measured activity coefficient for CCCCCCCC [octane] + CCCCC[n+]1ccccc1.O=S(=O)([N-]S(=O)(=O)C(F)(F)F)C(F)(F)F .
Out: 20.3
